system-name: Urease (Canavalia ensiformis)
Sequence (P07374 whole entry): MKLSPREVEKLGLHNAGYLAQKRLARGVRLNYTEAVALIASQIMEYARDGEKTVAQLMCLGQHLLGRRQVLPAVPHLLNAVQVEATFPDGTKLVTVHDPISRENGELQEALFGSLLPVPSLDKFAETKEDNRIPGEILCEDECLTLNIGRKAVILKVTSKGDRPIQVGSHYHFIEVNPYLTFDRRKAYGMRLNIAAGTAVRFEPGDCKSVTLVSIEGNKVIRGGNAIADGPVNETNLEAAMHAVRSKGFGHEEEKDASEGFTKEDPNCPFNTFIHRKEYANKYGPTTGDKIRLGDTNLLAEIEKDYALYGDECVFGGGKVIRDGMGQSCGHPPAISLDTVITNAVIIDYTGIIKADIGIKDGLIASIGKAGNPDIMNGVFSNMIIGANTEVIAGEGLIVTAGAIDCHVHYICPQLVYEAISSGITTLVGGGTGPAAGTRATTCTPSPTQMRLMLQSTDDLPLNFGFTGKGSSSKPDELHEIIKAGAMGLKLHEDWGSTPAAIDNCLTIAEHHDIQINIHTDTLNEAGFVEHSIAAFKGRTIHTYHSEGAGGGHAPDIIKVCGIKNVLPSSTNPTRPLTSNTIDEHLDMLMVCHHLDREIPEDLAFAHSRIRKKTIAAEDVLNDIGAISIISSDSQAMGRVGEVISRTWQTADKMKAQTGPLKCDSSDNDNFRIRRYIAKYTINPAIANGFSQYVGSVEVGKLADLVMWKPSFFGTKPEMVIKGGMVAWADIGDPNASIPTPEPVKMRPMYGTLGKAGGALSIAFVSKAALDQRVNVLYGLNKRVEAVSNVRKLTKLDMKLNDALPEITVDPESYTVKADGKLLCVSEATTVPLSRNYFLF
measurement-protocol: Inhibition of jack bean urease using urea as substrate assessed as reduction in ammonia production after 30 mins by indophenol method
Note to self: IC50 under 5 µM means Fulfilled, ties and anything higher get Not fulfilled.

*Q* Does O=C(NC(=S)Nc1cc(Cl)c(Cl)cc1Cl)c1cccc(Cl)c1 have IC50 strictly under 5 µM?
*A* Not fulfilled

*Q* Does O=C(NC(=S)Nc1c(Cl)cccc1Cl)c1cccc(Cl)c1 have IC50 strictly under 5 µM?
*A* Not fulfilled

*Q* Does O=C(NC(=S)Nc1ccc(Cl)cc1)c1cccc(Cl)c1 have IC50 strictly under 5 µM?
*A* Not fulfilled

*Q* Does Cc1cccc(NC(=S)NC(=O)c2cccc(Cl)c2)c1C have IC50 strictly under 5 µM?
*A* Fulfilled

*Q* Does O=C(NC(=S)Nc1ccc(Br)cc1Br)c1cccc(Cl)c1 have IC50 strictly under 5 µM?
*A* Not fulfilled

*Q* Does O=C(NC(=S)Nc1cc(Cl)ccc1Cl)c1cccc(Cl)c1 have IC50 strictly under 5 µM?
*A* Not fulfilled

*Q* Does O=C(NC(=S)Nc1c(Cl)cc(Cl)cc1Cl)c1cccc(Cl)c1 have IC50 strictly under 5 µM?
*A* Fulfilled

*Q* Does O=C(NC(=S)Nc1cccc(Br)c1)c1cccc(Cl)c1 have IC50 strictly under 5 µM?
*A* Not fulfilled
